System under test: Isocitrate dehydrogenase [NADP], mitochondrial (Homo sapiens)
Sequence (P48735 whole entry): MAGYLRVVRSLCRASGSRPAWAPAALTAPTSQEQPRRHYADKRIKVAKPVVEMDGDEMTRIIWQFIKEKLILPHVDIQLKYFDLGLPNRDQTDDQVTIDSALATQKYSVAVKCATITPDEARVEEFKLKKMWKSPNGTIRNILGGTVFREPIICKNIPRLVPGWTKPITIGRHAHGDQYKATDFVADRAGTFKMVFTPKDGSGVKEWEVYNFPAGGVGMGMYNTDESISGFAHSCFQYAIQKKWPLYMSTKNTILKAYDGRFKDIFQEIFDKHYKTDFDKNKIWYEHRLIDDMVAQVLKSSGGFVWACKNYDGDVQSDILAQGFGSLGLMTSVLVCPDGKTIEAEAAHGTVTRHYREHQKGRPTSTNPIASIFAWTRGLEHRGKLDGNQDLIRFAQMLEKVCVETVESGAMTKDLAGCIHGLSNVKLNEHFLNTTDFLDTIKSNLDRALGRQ

Substance smiles: C[C@H](Nc1nccc(N2C(=O)OC[C@@H]2[C@H](C)F)n1)c1ccc(-c2ccc(NC(=O)COc3cccnc3)cc2)cc1
IC50: > 100 µM

---

System under test: Isocitrate dehydrogenase [NADP] cytoplasmic (Homo sapiens, UniProt O75874, R132C)
Sequence (O75874 2-414 R132C limits assumed): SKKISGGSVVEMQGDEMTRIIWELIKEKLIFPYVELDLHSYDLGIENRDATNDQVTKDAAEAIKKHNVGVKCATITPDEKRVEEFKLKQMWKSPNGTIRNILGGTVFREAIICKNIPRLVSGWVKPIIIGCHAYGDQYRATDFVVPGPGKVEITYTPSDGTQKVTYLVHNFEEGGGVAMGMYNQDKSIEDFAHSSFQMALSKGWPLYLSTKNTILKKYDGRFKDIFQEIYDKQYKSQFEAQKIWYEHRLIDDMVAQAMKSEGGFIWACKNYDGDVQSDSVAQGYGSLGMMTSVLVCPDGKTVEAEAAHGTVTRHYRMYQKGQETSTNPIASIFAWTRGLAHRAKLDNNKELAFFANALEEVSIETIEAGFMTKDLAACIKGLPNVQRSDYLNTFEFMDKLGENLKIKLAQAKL
Experiment: Inhibition of recombinant IDH1 R132C mutant (unknown origin) using alpha-ketoglutarate as substrate incubated for 60 mins in presence of NADPH by fluorescence microplate reader
pIC50: −log10 of the molar value.
Assign 1.0 to entries whose pIC50 meets or exceeds 7; assign 0.0 to the rest.

Substance smiles: CC(C)[C@H]1COC(=O)N1c1ccnc(N[C@@H](C)c2ccc(NC(=O)CCCNC(=O)/C=C/c3cccnc3)cc2)n1
Class name: 0.0

Substance smiles: CC(C)[C@H]1COC(=O)N1c1ccnc(N[C@@H](C)c2ccc(NC(=O)CCNC(=O)/C=C/c3cccnc3)cc2)n1
Class name: 0.0

Substance smiles: CC(C)[C@H]1COC(=O)N1c1ccnc(N[C@@H](C)c2ccc(-c3ccc(NC(=O)c4cnccn4)cc3)cc2)n1
Class name: 0.0

Substance smiles: CC(C)[C@H]1COC(=O)N1c1ccnc(N[C@@H](C)c2ccc(-c3ccc(NC(=O)c4cnc5[nH]ccc5c4)cc3)cc2)n1
Class name: 1.0

Substance smiles: C[C@H](Nc1nccc(N2C(=O)OC[C@@H]2[C@@H](C)O)n1)c1ccc(-c2ccc(NC(=O)/C=C/c3cccnc3)cc2)cc1
Class name: 1.0

Substance smiles: CC(C)[C@H]1COC(=O)N1c1ccnc(N[C@@H](C)c2ccc(NC(=O)CCCCNC(=O)/C=C/c3cccnc3)cc2)n1
Class name: 0.0

---

Tested on: U-87 MG
Experiment: Antiproliferative activity against human U-87 MG cells harboring wildtype IDH1 assessed as inhibition of cell growth incubated for 72 hrs by CCK8 assay
Assay type: functional, cell-based, U-87MG ATCC
pIC50: −log10 of the molar value.

Substance smiles: C[C@H](Nc1nccc(N2C(=O)OC[C@@H]2[C@H](C)F)n1)c1ccc(-c2ccc(NC(=O)COc3cccnc3)cc2)cc1
System under test: U-87 MG
pIC50: 6.38
//
Substance smiles: Cc1cc([C@H](C)Nc2nccc(N3C(=O)OC[C@@H]3[C@H](C)F)n2)ncc1-c1ccnc(C(F)(F)F)c1
System under test: U-87 MG
pIC50: 5.45
//
Substance smiles: CC(C)[C@H]1COC(=O)N1c1ccnc(N[C@@H](C)c2ccc(-c3ccc(NC(=O)c4ccc5nccn5c4)cc3)cc2)n1
System under test: U-87 MG
pIC50: 5.49
//
Substance smiles: O=C(/C=C/c1cccnc1)NCCCCC1CCN(C(=O)c2ccccc2)CC1
System under test: U-87 MG
pIC50: 5.79
//
Substance smiles: N#Cc1ccnc(N2C(=O)CC[C@H]2C(=O)N(c2cncc(F)c2)[C@H](C(=O)NC2CC(F)(F)C2)c2ccccc2Cl)c1
System under test: U-87 MG
pIC50: 4.17
//
Substance smiles: CC(C)[C@H]1COC(=O)N1c1ccnc(N[C@@H](C)c2ccc(-c3ccc(NC(=O)COc4cccnc4)cc3)cc2)n1
System under test: U-87 MG
pIC50: 6.27

---

System under test: Nicotinamide phosphoribosyltransferase (Homo sapiens, UniProt P43490)
Sequence (P43490 whole entry): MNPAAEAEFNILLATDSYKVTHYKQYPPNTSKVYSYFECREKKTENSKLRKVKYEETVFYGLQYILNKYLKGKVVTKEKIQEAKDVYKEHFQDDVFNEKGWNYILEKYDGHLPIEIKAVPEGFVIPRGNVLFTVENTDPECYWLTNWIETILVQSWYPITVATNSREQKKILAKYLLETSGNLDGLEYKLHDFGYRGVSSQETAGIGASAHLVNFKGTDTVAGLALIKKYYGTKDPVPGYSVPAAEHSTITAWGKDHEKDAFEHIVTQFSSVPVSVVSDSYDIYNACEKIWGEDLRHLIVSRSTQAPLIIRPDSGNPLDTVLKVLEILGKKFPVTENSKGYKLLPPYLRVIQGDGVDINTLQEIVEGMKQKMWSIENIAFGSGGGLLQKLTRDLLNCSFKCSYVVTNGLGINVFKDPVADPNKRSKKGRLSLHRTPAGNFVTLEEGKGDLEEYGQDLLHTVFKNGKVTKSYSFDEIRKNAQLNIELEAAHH
Rule: measured IC50 below 40 nM gets true; anything equal to or greater than 40 nM gets false.

Compound: CC(C)[C@H]1COC(=O)N1c1ccnc(N[C@@H](C)c2ccc(NC(=O)C3CCN(C(=O)/C=C/c4cccnc4)C3)cc2)n1 (stereo not given in full)
Class name: false

Compound: C[C@H](Nc1nccc(N2C(=O)OC[C@@H]2[C@H](C)F)n1)c1ccc(-c2ccc(NC(=O)COc3cccnc3)cc2)cn1
Class name: true

Compound: C[C@H](Nc1nccc(N2C(=O)OC[C@@H]2[C@H](C)F)n1)c1ccc(-c2ccc(NC(=O)COc3cccnc3)cc2)cc1
Class name: false

Compound: C[C@H](Nc1nccc(N2C(=O)OC[C@@H]2[C@@H](C)O)n1)c1ccc(-c2ccc(NC(=O)COc3cccnc3)cc2)cc1
Class name: false

---

Experiment: Ratio of drug concentration in ICR mouse brain to plasma at 5 mg/kg, iv measured after 24 hrs by LC-MS/MS analysis
Assay type: ADME, organism-based
Applied conditions: read-out: BPR

Substance smiles: C[C@H](Nc1nccc(N2C(=O)OC[C@@H]2[C@H](C)F)n1)c1ccc(-c2ccc(NC(=O)COc3cccnc3)cc2)cc1
Kp at 24 h: 0.76

---

Experiment: AUC (0 to t) in Sprague-Dawley rat at 1 mg/kg, iv measured after 24 hrs by LC-MS/MS analysis
Assay type: ADME, organism-based
Applied conditions: in vivo

Substance smiles: C[C@H](Nc1nccc(N2C(=O)OC[C@@H]2[C@H](C)F)n1)c1ccc(-c2ccc(NC(=O)COc3cccnc3)cc2)cc1
AUC(0-t) at 24 h [ng·h/mL]: 1930

---

System under test: UniProtKB P43490
pIC50: −log10 of the molar value.
Assign fulfilled to entries whose pIC50 meets or exceeds 7; assign not fulfilled to the rest.

Substance smiles: C[C@H](Nc1nccc(N2C(=O)OC[C@@H]2[C@@H](C)O)n1)c1ccc(-c2ccc(NC(=O)c3ccc4nccn4c3)cc2)cc1
System under test: UniProtKB P43490
Class name: fulfilled

Substance smiles: C[C@H](Nc1nccc(N2C(=O)OC[C@@H]2[C@@H](C)OC(C)(C)C)n1)c1ccc(-c2ccc(NC(=O)c3ccc4nccn4c3)cc2)cc1
System under test: UniProtKB P43490
Class name: fulfilled

Substance smiles: C[C@H](Nc1nccc(N2C(=O)OC[C@@H]2[C@@H](C)OC(C)(C)C)n1)c1ccc(-c2ccc(NC(=O)COc3cccnc3)cc2)cc1
System under test: UniProtKB P43490
Class name: fulfilled

Substance smiles: CC(C)[C@H]1COC(=O)N1c1ccnc(N[C@@H](C)c2ccc(NC(=O)CCCCNC(=O)/C=C/c3cccnc3)cc2)n1
System under test: UniProtKB P43490
Class name: fulfilled

Substance smiles: C[C@H](Nc1nccc(N2C(=O)OC[C@@H]2c2ccccc2)n1)c1ccc(-c2ccc(NC(=O)/C=C/c3cccnc3)cc2)cc1
System under test: UniProtKB P43490
Class name: not fulfilled

Substance smiles: C[C@H](Nc1nccc(N2C(=O)OC[C@@H]2[C@@H](C)OC(C)(C)C)n1)c1ccc(-c2ccc(NC(=O)/C=C/c3cccnc3)cc2)cc1
System under test: UniProtKB P43490
Class name: fulfilled

---

Experiment: Cmax in Sprague-Dawley rat at 1 mg/kg, iv measured after 24 hrs by LC-MS/MS analysis
Type: ADME, organism-based
Applied conditions: in vivo

Substance smiles: C[C@H](Nc1nccc(N2C(=O)OC[C@@H]2[C@H](C)F)n1)c1ccc(-c2ccc(NC(=O)COc3cccnc3)cc2)cc1
Measurement unit: ng/mL
Cmax: 4070

---

System: U-87 MG
Format: functional, cell-based, U-87MG ATCC
Applied conditions: Homo sapiens, 48 h
Attribute: IC50

Substance smiles: N#Cc1ccnc(N2C(=O)CC[C@H]2C(=O)N(c2cncc(F)c2)[C@H](C(=O)NC2CC(F)(F)C2)c2ccccc2Cl)c1
IC50 (nM): 560
//
Substance smiles: Cc1cc([C@H](C)Nc2nccc(N3C(=O)OC[C@@H]3[C@H](C)F)n2)ncc1-c1ccnc(C(F)(F)F)c1
IC50 (nM): 450

---

pIC50: −log10 of the molar value.
# pIC50 measurements, system: Isocitrate dehydrogenase [NADP] cytoplasmic (Homo sapiens, UniProt O75874)
# Sequence (O75874 whole entry): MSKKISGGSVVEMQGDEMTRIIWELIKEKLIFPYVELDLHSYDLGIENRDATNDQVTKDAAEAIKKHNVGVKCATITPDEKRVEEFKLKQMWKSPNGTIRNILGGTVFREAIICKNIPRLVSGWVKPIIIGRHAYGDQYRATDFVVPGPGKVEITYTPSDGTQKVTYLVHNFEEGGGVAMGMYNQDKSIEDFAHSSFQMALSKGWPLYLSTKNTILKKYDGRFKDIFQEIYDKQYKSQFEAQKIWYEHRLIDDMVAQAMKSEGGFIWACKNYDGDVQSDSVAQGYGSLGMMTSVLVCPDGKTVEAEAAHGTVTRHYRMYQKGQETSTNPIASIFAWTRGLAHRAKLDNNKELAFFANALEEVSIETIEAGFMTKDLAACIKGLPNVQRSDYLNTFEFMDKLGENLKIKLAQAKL

Compound: CC(C)[C@H]1COC(=O)N1c1ccnc(N[C@@H](C)c2ccc(NC(=O)C3CCN(C(=O)/C=C/c4cccnc4)C3)cc2)n1 (stereo not given in full)
pIC50: 5.43
//
Compound: C[C@H](Nc1nccc(N2C(=O)OC[C@@H]2[C@H](C)F)n1)c1ccc(-c2ccc(NC(=O)c3ccc4nccn4c3)cc2)cc1
pIC50: 5.14
//
Compound: CC(C)[C@H]1COC(=O)N1c1ccnc(N[C@@H](C)c2ccc(-c3ccc(NC(=O)c4cc5cnccc5[nH]4)cc3)cc2)n1
pIC50: 5.04
//
Compound: C[C@H](Nc1nccc(N2C(=O)OC[C@@H]2[C@H](C)F)n1)c1ccc(-c2ccc(NC(=O)COc3cccnc3)cc2)cc1
pIC50: 5.05
//
Compound: C[C@H](Nc1nccc(N2C(=O)OC[C@@H]2Cc2ccccc2)n1)c1ccc(-c2ccc(NC(=O)c3ccc4nccn4c3)cc2)cc1
pIC50: 5.01

---

Tested on: U-87 MG
Type: functional, cell-based, U-87MG ATCC
Applied conditions: Homo sapiens, 48 h
pIC50: −log10 of the molar value.
Assign YES to entries whose pIC50 meets or exceeds 6; assign NO to the rest.

Substance smiles: Cc1cc([C@H](C)Nc2nccc(N3C(=O)OC[C@@H]3[C@H](C)F)n2)ncc1-c1ccnc(C(F)(F)F)c1
Class name: YES

Substance smiles: CC(C)[C@H]1COC(=O)N1c1ccnc(N[C@@H](C)c2ccc(-c3ccc(NC(=O)c4ccc5nccn5c4)cc3)cc2)n1
Class name: NO

Substance smiles: C[C@H](Nc1nccc(N2C(=O)OC[C@@H]2[C@H](C)F)n1)c1ccc(-c2ccc(NC(=O)COc3cccnc3)cc2)cc1
Class name: YES
